biological target: T1, dog serum albumin (dog, UniProt P49822 25-608); experiment: SPR (Biacore 8K), albumin immobilised, 25 C, 1:1 kinetics
T1 construct: bought protein, amine-coupled to a CM5 chip; also called Dog SA
Let's look at some binders and their measured kon.
Dear colleague, please return just the value in M⁻¹ s⁻¹, with no unit written.

## Task Look up kon: INS Analog 24 (other, single-chain insulin B-L2-A-L1-VHH fusion; also called Ex. 24) FVSQHLCGSHLVEALHLVCGERGFHYTPKTGGGGGGGIVEQCCHSICSLEQLENYCGPGPQPGPQPGPQPGPQPGPQPGPQPGPQPGPQEVQLLESGGGLVQPGGSLRLSCAASGRYIDETAVAWFRQAPGKEREFVAGIGGGVDITYYADSVKGRFTISRDNSKNTLYLQMNSLRPEDTAVYYCAARPGRPLITSKVADLYPYWGQGTLVTVSSPP
## Result 150000

## Task Look up kon: INS Analog 28 (other, single-chain insulin B-L2-A-L1-VHH fusion; also called Ex. 28) FVSQHLCGSHLVEALRLVCGERGFFYTPKTGGGGGGGIVEQCCHSICSLYQLENYCGPGPQPGPQPGPQPGPQPGPQPGPQPGPQPGPQEVQLLESGGGLVQPGGSLRLSCAASGRYIDETAVAWFRQAPGKEREFVAGIGGGVDITYYADSVKGRFTISRDNSKNTLYLQMNSLRPEDTAVYYCAARPGRPLITSKVADLYPYWGQGTLVTVSSPP
## Result 170000

## Task Look up kon: INS Analog 30 (other, single-chain insulin B-L2-A-L1-VHH fusion; also called Ex. 30) FVSQHLCGSHLVEALRLVCGERGFHYTPKTGGGGGGGIVEQCCHSICSLYQLENYCGPGPQPGPQPGPQPGPQPGPQPGPQPGPQPGPQEVQLLESGGGLVQPGGSLRLSCAASGRYIDETAVAWFRQAPGKEREFVAGIGGGVDITYYADSVKGRFTISRDNSKNTLYLQMNSLRPEDTAVYYCAARPGRPLITSKVADLYPYWGQGTLVTVSSPP
## Result 170000
